# System: SKOV3
# Assay Explanation: Confirmatory qHTS for gynecologic anti-cancer compounds from libraries of approved drugs and bioactive compounds; further: nearly all actives have a fitted effect of over 55% in size
# Condition Parameters: gynecologic cancer cell panel viability, ATPlite luminescence, 48 h; series mostly up to 57.6 µM
Records with an inconclusive call do not appear. The source made the active and inactive calls. The call rests on the fitted dose curve; in most records, active means well fitted cell-killing curve with a large enough effect; inconclusive means small, poorly fitted or top-dose-only effect, or effect the other way; inactive means no such curve, though single readings can be large or run the other way.
Your answer must be one of the following: 1 (active), -1 (inactive)

Previously resolved entries follow.
Query: Please state the recorded outcome for this molecule: CCn1c(-c2nonc2N)nc2c(C#CC(C)(C)O)ncc(OCC3CCCNC3)c21 (centres undefined)
Response: -1

Query: Please state the recorded outcome for this molecule: Cc1nc(N)ncc1-c1nc(N2CCOCC2)c2sc(C(C)(C)O)cc2n1
Response: 1

Query: Please state the recorded outcome for this molecule: O=C(O)c1ccc(Nc2ncc3c(n2)-c2ccc(Cl)cc2C(c2c(F)cccc2F)=NC3)cc1
Response: -1

Query: Please state the recorded outcome for this molecule: O=C(O)C1(Cc2cccc(Nc3nccs3)n2)CCC(Oc2cccc(Cl)c2F)CC1 (centres undefined)
Response: -1

Query: Please state the recorded outcome for this molecule: NS(=O)(=O)OC[C@@H]1C[C@@H](n2ccc3c(N[C@H]4CCc5ccccc54)ncnc32)C[C@@H]1O
Response: -1

Continuing:
Query: Please state the recorded outcome for this molecule: CN(C)C(CCOc1cccc2ccccc12)c1ccccc1 (centres undefined)
Response: -1

Query: Please state the recorded outcome for this molecule: COc1cc(N2CCC(N)CC2)ccc1Nc1ncc(Cl)c(-c2c[nH]c3ccccc23)n1
Response: 1

Query: Please state the recorded outcome for this molecule: O=C(c1ccc(/C=C/c2n[nH]c3ccccc23)cc1)N1CCNCC1
Response: 1

Query: Please state the recorded outcome for this molecule: Nc1ccn([C@@H]2O[C@H](CO)[C@@H](O)C2(F)F)c(=O)n1
Response: 1
